FYI, the data here is from patent US9404081B2.

Kindly supply the reported activation at 1 µM values for the records listed here.
Biological target: PKR wt (Homo sapiens)
Sequence (P30613 whole entry): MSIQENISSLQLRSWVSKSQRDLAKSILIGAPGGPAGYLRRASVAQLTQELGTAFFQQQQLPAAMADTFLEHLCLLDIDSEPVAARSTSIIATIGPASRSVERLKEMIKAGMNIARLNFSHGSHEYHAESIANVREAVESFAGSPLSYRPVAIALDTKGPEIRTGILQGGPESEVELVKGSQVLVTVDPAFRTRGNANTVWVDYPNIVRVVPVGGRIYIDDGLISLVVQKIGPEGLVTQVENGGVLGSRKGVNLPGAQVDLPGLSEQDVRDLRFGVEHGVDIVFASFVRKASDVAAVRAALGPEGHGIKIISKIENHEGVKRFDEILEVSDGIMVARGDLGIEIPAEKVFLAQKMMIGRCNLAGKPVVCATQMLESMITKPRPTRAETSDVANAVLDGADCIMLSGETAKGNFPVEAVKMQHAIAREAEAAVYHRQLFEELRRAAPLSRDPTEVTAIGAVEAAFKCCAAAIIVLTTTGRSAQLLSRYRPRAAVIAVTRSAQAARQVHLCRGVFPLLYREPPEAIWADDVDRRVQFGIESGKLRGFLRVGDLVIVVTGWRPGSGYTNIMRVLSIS
Assay: PKR WT Single Point Percent Activation Assay
Format: biochemical

>>> print(df.to_string())
                                   compound       result
0  O=C(c1ccc(NS(=O)(=O)c2cccc3cccnc23)cc1)N1CC2CCC(C1)N2Cc1ccc(F)cc1  101 to 500%
1  CC1CN(Cc2c(F)cc(F)cc2F)CC(C)N1C(=O)c1ccc(NS(=O)(=O)c2cccc3cccnc23)cc1 (stereo not shown)  101 to 500%

// each listed compound needs a value for activation at 1 µM
1. C[C@@H]1CN(C(=O)OCCC2CCCCC2)CCN1C(=O)c1ccc(NS(=O)(=O)c2cccc3cccnc23)cc1
2. CC(C)[C@H]1CN(C(C)c2ccc(F)cc2)CCN1C(=O)c1ccc(NS(=O)(=O)c2cccc3cccnc23)cc1 (stereo partly shown)
3. C[C@@H]1CN(C(=O)OCC2CCCO2)CCN1C(=O)c1ccc(NS(=O)(=O)c2cccc3cccnc23)cc1 (stereo partly shown)
4. O=C1CN(C(=O)c2ccc(NS(=O)(=O)c3cccc4cccnc34)cc2)CCN1CC1CC1

1 to 100%
101 to 500%
101 to 500%
101 to 500%

// each listed compound needs a value for activation at 1 µM
1. C[C@H]1CN(Cc2cc(F)cc(F)c2)CCN1C(=O)c1ccc(NS(=O)(=O)c2cccc3cccnc23)cc1Cl
2. CC1CN(CC2CCCCC2)CC(C)N1C(=O)c1ccc(NS(=O)(=O)c2cccc3cccnc23)cc1 (stereo not shown)

1. 1 to 100%
2. 101 to 500%

// each listed compound needs a value for activation at 1 µM
1. C[C@@H]1CN(CC2CCCCC2)CCN1C(=O)c1ccc(NS(=O)(=O)c2cccc3cccnc23)cc1
2. CCOC(=O)N1[C@H](C)CN(C(=O)c2ccc(NS(=O)(=O)c3cccc4cccnc34)cc2)C[C@@H]1C

1. 101 to 500%
2. 101 to 500%
